- System: BV-2
- assay-procedure: Antiinflammatory activity in mouse BV-2 cells assessed as reduction in LPS-induced nitric oxide production incubated for 24 hrs by 2, 3-diaminonaphthalene based assay
- Type: functional, cell-based
- stated-conditions: Mus musculus, BV-2, 24 h; read-out: IC50
# IC50 per entry
Expressed in µM, but write only the number.

Some molecules with known IC50 results, for comparison:
C=C(C)[C@@H]1CCC(C)=C[C@H]1c1c(O)cc(CCCCC)cc1OCCCO[C@H]1O[C@@H]2O[C@]3(C)CC[C@H]4[C@H](C)CC[C@@H]([C@H]1C)[C@@]24OO3 : 11.7
C=C(C)[C@@H]1CCC(C)=C[C@H]1c1c(O)cc(CCCCC)cc1O [CANNABIDIOL] : 10.3
C=C(C)[C@@H]1CCC(C)=C[C@H]1c1c(O)cc(CCCCC)cc1OCCO[C@H]1O[C@@H]2O[C@]3(C)CC[C@H]4[C@H](C)CC[C@@H]([C@H]1C)[C@@]24OO3 : 55

Tell me the measured IC50 of C[C@H]1[C@@H](O)O[C@@H]2O[C@@]3(C)CC[C@H]4[C@H](C)CC[C@@H]1[C@@]24OO3 [ARTENIMOL] , please. 7.4

----------
Items are presented alongside their recorded IC50.
- Tested on: BV-2
- assay-procedure: Cytotoxicity against mouse BV-2 cells assessed as reduction in cell viability incubated for 24 hrs by crystal violet dye based assay
- stated-conditions: BV-2, 24 h

C[C@H]1[C@@H](O)O[C@@H]2O[C@@]3(C)CC[C@H]4[C@H](C)CC[C@@H]1[C@@]24OO3 : 120 µM

Now consider a different compound.
Fill in: IC50 of C=C(C)[C@@H]1CCC(C)=C[C@H]1c1c(O)cc(CCCCC)cc1O is ___ 8 µM
